# tested_target: FAAH (Rattus norvegicus)
# Construct: For the assay of FAAH activity in rat brain membrane (RBM) homogenates; tissue Charles River (animals); host or cells: rat whole brain, membrane fraction
# Sequence (P97612 1-579): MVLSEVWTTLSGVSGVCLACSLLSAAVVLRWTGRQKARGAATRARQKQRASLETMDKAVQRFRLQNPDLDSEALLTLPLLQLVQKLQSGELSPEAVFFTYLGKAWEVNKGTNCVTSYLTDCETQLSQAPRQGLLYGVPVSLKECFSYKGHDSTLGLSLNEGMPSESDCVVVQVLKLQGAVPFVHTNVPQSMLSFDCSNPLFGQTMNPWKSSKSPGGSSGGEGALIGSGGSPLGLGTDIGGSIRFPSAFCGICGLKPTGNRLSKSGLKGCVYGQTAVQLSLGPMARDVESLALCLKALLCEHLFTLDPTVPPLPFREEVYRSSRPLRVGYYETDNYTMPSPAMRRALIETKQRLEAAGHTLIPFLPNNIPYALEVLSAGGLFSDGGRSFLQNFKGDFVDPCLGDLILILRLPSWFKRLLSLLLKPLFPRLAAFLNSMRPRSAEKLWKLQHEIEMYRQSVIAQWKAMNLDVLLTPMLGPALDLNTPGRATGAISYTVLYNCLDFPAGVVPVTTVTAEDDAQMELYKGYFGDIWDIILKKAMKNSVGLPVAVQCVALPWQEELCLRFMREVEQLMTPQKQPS
# method_notes: FAAH inhibition, rat brain membrane homogenate assay
# Type: biochemical
# run_parameters: rat brain homogenate; average activity; read-out: Rat Brain Extract FAAH IC50
pIC50: −log10 of the molar value.
quantity_name: pIC50

- smiles_record: "COc1ccc(Cn2c(C)c(C(=O)C(=O)Nc3ccnc(OC)c3)c3cc(OC)c(Cl)cc32)nc1"
  test_result: "> 7.00"
- smiles_record: "COc1cc(NC(=O)C(=O)c2c(C)n(Cc3ccc(Cl)cn3)c3ccc([N+](=O)[O-])cc23)ccn1"
  test_result: "> 7.00"
- smiles_record: "COc1ccc2c(c1)c(C(=O)C(=O)Nc1ccnc(OC)c1)c(C)n2Cc1ccc(Cl)cn1"
  test_result: "> 7.00"
- smiles_record: "COc1cc(NC(=O)C(=O)c2c(C)n(Cc3ccc(Cl)cc3)c3ccc(OC)c(F)c23)ccn1"
  test_result: "> 7.00"
- smiles_record: "COc1ccc2c(c1)c(C(=O)C(=O)Nc1ccnc(OC)c1F)c(C)n2Cc1ccc(Cl)cc1"
  test_result: "> 7.00"
- smiles_record: "COc1cc(NC(=O)C(=O)c2c(C)n(Cc3ccc(Cl)cn3)c3cc(OC)c(Cl)cc23)ccn1"
  test_result: "> 7.00"
- smiles_record: "COc1cnc2c(c1)c(C(=O)C(=O)Nc1ccnc(OC)c1)c(C)n2Cc1ccc(Cl)cn1"
  test_result: "> 7.00"
- smiles_record: "COc1cc(NC(=O)C(=O)c2c(C)n(Cc3ccc(Cl)cn3)c3cc(F)c(C)cc23)ccn1"
  test_result: "> 7.00"
- smiles_record: "COc1cc(NC(=O)C(=O)c2c(C)n(Cc3ccc(Cl)cc3)c3cc(OC)c(Cl)cc23)ccn1"
  test_result: "> 7.00"
- smiles_record: "COc1cc(NC(=O)C(=O)c2c(C)n(Cc3ccc(Cl)cc3)c3ccc(Br)cc23)ccn1"
  test_result: "> 7.00"
- smiles_record: "COc1cc(NC(=O)C(=O)c2c(C)n(Cc3ncc(Cl)cc3F)c3ccc(C)cc23)ccn1"
  test_result: "> 7.00"
- smiles_record: "COc1cc(NC(=O)C(=O)c2c(C)n(Cc3ccc(Cl)cc3)c3ccc(N)c(Cl)c23)ccn1"
  test_result: "6.00 to 7.00"
- smiles_record: "COc1cc(NC(=O)C(=O)c2c(C)n(Cc3ncc(Cl)cc3Cl)c3ccc(C)cc23)ccn1"
  test_result: "> 7.00"
- smiles_record: "COc1cc(NC(=O)C(=O)c2c(C)n(Cc3ncc(Cl)cc3F)c3cc(F)c(OC)cc23)ccn1"
  test_result: "> 7.00"
- smiles_record: "COc1cc(NC(=O)C(=O)c2c(C)n(Cc3ncc(F)cc3F)c3cc(F)c(OC)cc23)ccn1"
  test_result: "> 7.00"
- smiles_record: "COc1cc(NC(=O)C(=O)c2c(C)n(Cc3ccc(Cl)cc3)c3ccc(OC)c(Cl)c23)ccn1"
  test_result: "6.00 to 7.00"

###

# tested_target: FAAH (Homo sapiens, UniProt O00519)
# Construct: Reactions were initiated by adding 12.5 μg of brain microsome; tissue ABS, Inc; host or cells: human brain cerebral cortex, membrane/microsome fraction pooled from 3 donors
# Sequence (O00519 1-579): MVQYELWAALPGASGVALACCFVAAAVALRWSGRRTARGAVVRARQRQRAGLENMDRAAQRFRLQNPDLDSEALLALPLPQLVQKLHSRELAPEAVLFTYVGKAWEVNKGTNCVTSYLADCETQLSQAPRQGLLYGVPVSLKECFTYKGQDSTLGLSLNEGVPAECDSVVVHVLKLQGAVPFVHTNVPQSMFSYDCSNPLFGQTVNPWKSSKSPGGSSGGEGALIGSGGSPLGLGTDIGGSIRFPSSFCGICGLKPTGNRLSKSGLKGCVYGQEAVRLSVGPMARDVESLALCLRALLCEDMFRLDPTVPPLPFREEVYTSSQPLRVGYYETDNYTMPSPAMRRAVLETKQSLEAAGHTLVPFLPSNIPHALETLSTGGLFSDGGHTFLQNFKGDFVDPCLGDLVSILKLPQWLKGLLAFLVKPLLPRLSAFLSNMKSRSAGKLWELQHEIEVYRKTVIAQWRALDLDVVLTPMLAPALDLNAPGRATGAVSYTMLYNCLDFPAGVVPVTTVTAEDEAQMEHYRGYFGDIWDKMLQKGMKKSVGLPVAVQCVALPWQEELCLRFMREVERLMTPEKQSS
# method_notes: FAAH inhibition, human brain membrane homogenate assay
# Type: biochemical
# run_parameters: human brain homogenate; average activity; read-out: Human brain Extract FAAH IC50

- compound: "COc1cc(NC(=O)C(=O)c2c(C)n(Cc3ncc(Cl)cc3Cl)c3cc(F)c(OC)cc23)ccn1 [Compound 13]"
  IC50: "< 100 nM"
- compound: "COc1cc(NC(=O)C(=O)c2c(C)n(Cc3ncc(Cl)cc3Cl)c3ccc(C)cc23)ccn1 [Compound 30]"
  IC50: "< 100 nM"
- compound: "COc1cc(NC(=O)C(=O)c2c(C)n(Cc3ncc(Cl)cc3Cl)c3ccccc23)ccn1 [Compound 31]"
  IC50: "< 100 nM"
- compound: "CCN(CC)c1ccc2c(c1)c(C(=O)C(=O)Nc1ccnc(OC)c1)c(C)n2Cc1ccc(Cl)cc1 [Compound 24]"
  IC50: "1000 to 10000 nM"

###

Each item that follows carries a reported pIC50.
# tested_target: FAAH (Rattus norvegicus)
# Construct: For the assay of FAAH activity in rat brain membrane (RBM) homogenates; tissue Charles River (animals); host or cells: rat whole brain, membrane fraction
# method_notes: FAAH inhibition, rat brain membrane homogenate assay
# Assay type: biochemical
# run_parameters: rat brain homogenate; average activity; read-out: Rat Brain Extract FAAH IC50
pIC50: −log10 of the molar value.

- smiles_record: "COc1cc(NC(=O)C(=O)c2c(C)n(Cc3ccc(Cl)cn3)c3ccc(N)cc23)ccn1"
  pIC50: "> 7.00"
- smiles_record: "COc1ccc2c(c1)c(C(=O)C(=O)Nc1ccnc(OC)c1)c(C)n2Cc1ccc(C)cn1"
  pIC50: "> 7.00"
- smiles_record: "COc1ccc2c(c1)c(C(=O)C(=O)Nc1ccnc(O)c1)c(C)n2Cc1ccc(Cl)cc1"
  pIC50: "5.00 to 6.00"
- smiles_record: "COc1cc(NC(=O)C(=O)c2c(C)n(Cc3ccc(Cl)cc3)c3ccc(CO)cc23)ccn1"
  pIC50: "> 7.00"
- smiles_record: "COc1cc(NC(=O)C(=O)c2c(C)n(Cc3ccc(Cl)cc3)c3ccc(C#N)cc23)ccn1"
  pIC50: "> 7.00"
- smiles_record: "COc1cc(NC(=O)C(=O)c2c(C)n(Cc3ccc(Cl)cc3F)c3cc(F)c(OC)cc23)ccn1"
  pIC50: "> 7.00"
- smiles_record: "COc1ccc(Cn2c(C)c(C(=O)C(=O)Nc3ccnc(OC)c3)c3cc(OC)c(C)cc32)nc1"
  pIC50: "> 7.00"
- smiles_record: "C=Cc1ccc2c(c1)c(C(=O)C(=O)Nc1ccnc(OC)c1)c(C)n2Cc1ccc(Cl)cc1"
  pIC50: "> 7.00"
- smiles_record: "COc1cc(NC(=O)C(=O)c2c(C)n(Cc3ccc(Cl)cc3)c3c(OC)cccc23)ccn1"
  pIC50: "5.00 to 6.00"
- smiles_record: "COc1cc(NC(=O)C(=O)c2c(C)n(Cc3ncc(Cl)cc3Cl)c3ccccc23)ccn1"
  pIC50: "> 7.00"
- smiles_record: "COc1cc(NC(=O)C(=O)c2c(C)n(Cc3ccc(Cl)cc3)c3cc(F)c(OC)cc23)ccn1"
  pIC50: "> 7.00"
- smiles_record: "COc1cc(NC(=O)C(=O)c2c(C)n(Cc3ccc(Cl)cn3)c3cc(C)c(OC)cc23)ccn1"
  pIC50: "> 7.00"
- smiles_record: "COc1cc(NC(=O)C(=O)c2c(C)n(Cc3ncc(Cl)cc3Cl)c3cc(Cl)c(OC)cc23)ccn1"
  pIC50: "> 7.00"
- smiles_record: "COc1cc(NC(=O)C(=O)c2c(C)n(Cc3ccc(Cl)cc3)c3ccc(OC)nc23)ccn1"
  pIC50: "> 7.00"
- smiles_record: "COc1cc(NC(=O)C(=O)c2c(C)n(Cc3ccc(Cl)cc3)c3ccc(N)cc23)ccn1"
  pIC50: "> 7.00"
- smiles_record: "COc1ccc2c(c1)c(C(=O)C(=O)Nc1ccnc(OC)c1Cl)c(C)n2Cc1ccc(Cl)cc1"
  pIC50: "< 5.00"
